- System: NCI-H460 lung
Labels: yes (1) for active, no (0) for inactive

>>> assigned_category("C[CH2][Sn]([CH2]C)([O]C(=O)C(OC(C)=O)c1ccccc1)[O]C(=O)C(OC(C)=O)c1ccccc1 (stereo not given)")
"no (0)"
>>> assigned_category("Cc1ccc(S(=O)(=O)Nc2cccc3[nH]c(C(F)(F)F)nc23)cc1")
"yes (1)"
>>> assigned_category("O=C(Nc1ccc(Cl)c(Cl)c1)O/N=C\\c1c(Cl)ccc([N+](=O)[O-])c1Cl")
"no (0)"
>>> assigned_category("CC(C)(O)CC(=O)NCCn1ccc2ncnc(Nc3ccc(Oc4cccc(C(F)(F)F)c4)c(Cl)c3)c21")
"no (0)"
>>> assigned_category("C[C@@H]1CC[C@H]2C(C(O)CCCCC(O)C3=C(C(F)(F)F)O[C@@H]4O[C@@]5(C)CC[C@H]6[C@H](C)CC[C@@H]3[C@@]46OO5)=C(C(F)(F)F)O[C@@H]3O[C@@]4(C)CC[C@@H]1[C@]32OO4 (stereo not given in full)")
"no (0)"
>>> assigned_category("CCOc1ccccc1N=Nc1c(C)[nH]n(-c2nc(-c3ccccc3)cs2)c1=O")
"no (0)"
>>> assigned_category("Cn1cc(C2=C(c3cccc(OCC(O)CO)c3)C(=O)NC2=O)c2ccccc21 (stereo not given)")
"no (0)"
>>> assigned_category("O=c1nc2oc3ccc4ccccc4c3cc-2s1")
"no (0)"
>>> assigned_category("COc1ccc(C(=O)c2cc3c(N)c(C(=O)Nc4cccc5ccccc45)sc3nc2C)cc1")
"yes (1)"
>>> assigned_category("O=C(NN1C(=O)CSC12CCCC2)c1[nH]c2ccc(Br)cc2c1-c1ccccc1")
"no (0)"
>>> assigned_category("COc1ccc(OC)c(-c2c(C#N)c(N)nc(N3CCOCC3)c2C#N)c1")
"no (0)"
>>> assigned_category("CCCOC(=O)N1CCN(/[N+]([O-])=N/Oc2ccc([N+](=O)[O-])cc2[N+](=O)[O-])CC1")
"no (0)"
>>> assigned_category("Cc1cc(N2CCCC2)nc(N(CCNc2ccnc3cc(Cl)ccc23)Cc2ccco2)n1")
"no (0)"
>>> assigned_category("Clc1nc(Cl)c2ncn(C/C=C/COc3cccc(OC/C=C/Cn4cnc5c(Cl)nc(Cl)nc54)c3)c2n1")
"no (0)"
>>> assigned_category("CCc1ccc(NC(=O)COC(=O)c2cc([N+](=O)[O-])ccc2Sc2nnnn2C)cc1")
"no (0)"
